experiment: LAP4-GFP modulation potency in yeast, dose response, cell-based, MLPCN hits, flow cytometry (AID 2745);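 further: yeast exposed to compound for three hours at 30 degrees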; details: S. cerevisiae LAP4-GFP reporter, flow cytometry fluorescence; at 33 µM (top of the series)
Activity calls are given as the source filed them. How the calls were made is not given here.
Can you tell me LAP4-GFP fluorescence (kMESF) for the items I'm about to list?

1. COCCN1C(=O)/C(=C/c2ccc(N3CCCC3)cc2C)SC1=S    7.02 kMESF (inactive)
2. COc1ccc2c(/C=C/c3cc[n+](C)cc3)c[nH]c2c1    3.71 kMESF (inactive)
3. CC(C)[C@@]1(c2ccc(Cl)cc2)ON(c2ccccc2C(F)(F)F)C1=O    3.53 kMESF (inactive)
4. O=C1CCN(S(=O)(=O)c2ccccc2)CCN1CCOCc1ccc(F)cc1    2.43 kMESF (inactive)
5. C[n+]1ccc(/C=C/c2c[nH]c3ccccc23)cc1    9.29 kMESF (inactive)

Provide the reported LAP4-GFP fluorescence (kMESF) of each entry below, same order.
1. Cc1cc(NC(=O)c2cccnc2Cl)ccc1NC(=O)c1cc2ccccc2o1
2. CCn1c(=O)c(C(C)=O)c(O)c2ccccc21
3. Clc1cnc(N/N=C/c2cccs2)c(Cl)c1

Return:
1. 3.41 kMESF (inactive)
2. 6.66 kMESF (inactive)
3. 6.2 kMESF (inactive)

Hi team, please reply with LAP4-GFP fluorescence (kMESF) for each item in this list.
1. Cc1ccc(C(=O)O/N=C(\N)Cc2cccs2)c(Cl)c1
2. O=[N+]([O-])c1ccc(Sc2nc3ccccc3o2)c([N+](=O)[O-])c1
3. Cc1ccc(/C=C/C(=O)c2ccc([N+](=O)[O-])o2)cc1

Return:
13.1 kMESF (inactive)
4.88 kMESF (inactive)
9.71 kMESF (inactive)

---

experiment: LAP4-GFP modulation potency in yeast, dose response, cell-based, MLPCN hits, flow cytometry (AID 2745);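 further: yeast exposed to compound for three hours at 30 degrees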; conditions: S. cerevisiae LAP4-GFP reporter, flow cytometry fluorescence; at 33 µM (top of the series)
Calls of active or inactive are those of the source. The rule behind the calls is not given here.
readout: LAP4-GFP fluorescence (kMESF)

List LAP4-GFP fluorescence (kMESF) for every entry below, keeping the order given.
1. CCOC(=O)C(C(=O)OCC)C(C(=O)OCC)N1CCOCC1 (stereo not given)
2. Nc1ccccc1SC(C[N+](=O)[O-])c1ccccc1 (stereo not given)
3. CCN1/C(=C/c2ccc3cc(C)ccc3[n+]2CC)Sc2ccc3sccc3c21
4. Cc1cc(NC(c2ccc(Cl)cc2)c2ccc3cccnc3c2O)no1 (stereo not given)
5. Cc1ccc(S(=O)(=O)N2CC(C(=O)O)=CC[C@H]2c2ccc(Cl)cc2)cc1
6. CCCc1cc(NCc2ccccn2)n2nc(C)c(-c3ccccc3)c2n1
7. CCC1(c2ccccc2)ON(c2c(Br)cccc2Br)C1=O (stereo not given)

Return:
1. 6.39 kMESF (inactive)
2. 11.5 kMESF (inactive)
3. 10.7 kMESF (inactive)
4. 11.2 kMESF (inactive)
5. 4.05 kMESF (inactive)
6. 9.24 kMESF (inactive)
7. 7.52 kMESF (inactive)

Hello, I would appreciate it if you could give LAP4-GFP fluorescence (kMESF) for each entry below.
1. O=C(O)c1cc[c]([Hg][Cl])cc1
2. O=C1C=C(Nc2ccc(Cl)cc2)C(=O)N1c1ccc(Cl)cc1
3. CC(=O)OC[C@]12CC[C@H]3[C@@](C)(CC[C@H]4C(C)(C)CCC[C@]34C)[C@@H]1C[C@H](C1=CC(=O)O[C@@H]1OC(C)=O)O2

Return:
1: 8.49 kMESF (inactive); 2: 3.03 kMESF (inactive); 3: 13.6 kMESF (inactive)

---

experiment: LAP4-GFP modulation potency in yeast, dose response, cell-based, MLPCN hits, flow cytometry (AID 2745);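 further: yeast exposed to compound for three hours at 30 degrees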; conditions: S. cerevisiae LAP4-GFP reporter, flow cytometry fluorescence; at 33 µM (top of the series)
Activity calls are given as the source filed them. How the calls were made is not given here.
readout: LAP4-GFP fluorescence (kMESF)

Solved entries (count: 8):
1. Cc1ccc(N=c2ssnc2Cl)cc1    10.6 kMESF (inactive)
2. O=c1cc(-c2ccccc2)cc(-c2ccccc2)n1O    5.91 kMESF (inactive)
3. O=C(O)c1ccc(COc2ccccc2C=C2C(=O)c3ccccc3C2=O)cc1    4.11 kMESF (inactive)
4. N#Cc1c2ccc([N+](=O)[O-])cc2[n+]([O-])n1-c1ccccc1    4.85 kMESF (inactive)
5. CCCOc1ccc(C(=O)NNC(=S)NC(=O)c2ccccc2)cc1    8.22 kMESF (inactive)
6. Oc1c(C(Nc2nc3ccccc3s2)c2ccco2)ccc2cccnc12 (configuration not stated)    24.1 kMESF (inactive)
7. Cc1ccc(S(=O)(=O)N2CCCC2C(=O)NCc2ccncc2)cc1 (configuration not stated)    4.58 kMESF (inactive)
8. Oc1ccc(CNc2ccccc2)c2cccnc12    3.88 kMESF (inactive)

I'm hoping you can list LAP4-GFP fluorescence (kMESF) for every molecule here, please.
1. Cc1ccc2[nH]c(C)c(/C=C/c3cc[n+](C)cc3)c2c1
2. O=C(/C=C/c1ccccc1)c1cc(Br)ccc(=O)c1O

Return:
1: 8.71 kMESF (inactive); 2: -10.1 kMESF (inactive)

// each molecule listed below needs its LAP4-GFP fluorescence (kMESF)
1. O=C(Nc1ccc(NC(=O)c2cc3ccccc3o2)cc1)c1ccco1
2. CCCCNc1c2c3c(cccc3n(C)c1=O)C(=O)c1ccccc1-2

Return:
1: 3.31 kMESF (inactive); 2: 11.2 kMESF (inactive)

// batch mode: one LAP4-GFP fluorescence (kMESF) value per listed entry
1. COc1ccc(CCNC2=C(Cl)C(=O)N(CCc3ccccc3)C2=O)cc1OC
2. C=CCOc1ccccc1C(=O)/C=C1/C(=O)Nc2ccccc21
3. COc1ccccc1-c1nc2s/c(=C\c3cccs3)c(=O)n2n1
4. O=C(O)C1Sc2[nH]c(=O)sc2C2c3cc(Br)ccc3OC(=O)C12 (configuration not stated)
5. C[C@H]1C[C@@H](C)C(=O)[C@@H]([C@H](O)CC2CC(=O)NC(=O)C2)C1
6. C=C1C(O)[C@@H]2O[C@]3(CC[C@H](/C=C/C(C)[C@@H]4CC(C)=CC5(O[C@H](C[C@@](C)(O)C(=O)O)CCC5O)O4)O3)CC[C@H]2O[C@@H]1C(O)CC(C)[C@H]1OC2(CCCCO2)CCC1C (some centres not stated)

Return:
["3.31 kMESF (inactive)", "10.2 kMESF (inactive)", "5.46 kMESF (inactive)", "5.82 kMESF (inactive)", "7.12 kMESF (inactive)", "11.7 kMESF (inactive)"]

---

assay: LAP4-GFP modulation potency in yeast, dose response, cell-based, MLPCN hits, flow cytometry (AID 2745);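 further: yeast exposed to compound for three hours at 30 degrees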; conditions: S. cerevisiae LAP4-GFP reporter, flow cytometry fluorescence; at 33 µM (top of the series)
Calls of active or inactive are those of the source. How the calls were made is not given here.
readout: LAP4-GFP fluorescence (kMESF)

1) Cc1ccccc1[C@@]1(C)ON(c2ccccc2C(F)(F)F)C1=O    5.8 kMESF (inactive)
2) Cc1ccc(/C(N)=N/OC(=O)c2ccc(F)cc2)cc1    5.21 kMESF (inactive)
3) O=C1c2sc3nc4ccccc4n3c2C(=O)N1c1ccccc1Cl    3.64 kMESF (inactive)
4) O=C(Oc1c(Cl)cc(Cl)c2cccnc12)c1cccs1    13.8 kMESF (inactive)
5) Cc1ccc2c(c1)c(/C=C/c1cc[n+](C)cc1)c(C)n2C    4.11 kMESF (inactive)

For every item in the list below, what is its measured LAP4-GFP fluorescence (kMESF)?
1. CCOc1ccccc1/C=c1\sc2ncnn2c1=O
2. N#C/C(=C\c1cc(Br)ccc1F)C(=O)NC1CC1
3. Cc1ccc(C(CC(=O)O)NC(=O)c2ccc(S(=O)(=O)N3CC(C)OC(C)C3)cc2)cc1 (stereo not drawn)
4. COc1ccccc1[C@]1(C)ON(c2ccccc2C(F)(F)F)C1=O
5. CCOc1ccc(N/N=C(/C#N)C(N)=O)cc1
6. Cc1[nH][nH]c(=O)c1C(c1ccc(-c2ccc(Cl)c(Cl)c2)o1)c1c(C)[nH][nH]c1=O
7. O=C1N(c2ccccc2C(F)(F)F)O[C@]1(c1ccccc1)C1CCCC1

Return:
["19 kMESF (inactive)", "18.3 kMESF (inactive)", "3.28 kMESF (inactive)", "7.79 kMESF (inactive)", "9.57 kMESF (inactive)", "6.01 kMESF (inactive)", "3.98 kMESF (inactive)"]

Give one value of LAP4-GFP fluorescence (kMESF) per listed compound.
1. CCCCC(=O)NC(=S)NNC(=O)CCc1ccccc1
2. C[C@@H]1C[C@@H]([C@H](O)CC2CC(=O)NC(=O)C2)C(=O)[C@@H](C)C1
3. COc1ccc(-c2cc3cc(C(=O)O)ccn3c2C(=O)c2ccccc2)cc1
4. O=C(OCn1ncc(Br)c(Br)c1=O)c1ccccc1Cl
5. Cc1nn(C)c(C)c1N1C(=O)c2cccc3c(Br)ccc(c23)C1=O
6. CC(=O)CSc1ncnc2c1cnn2-c1ccccc1

Return:
["8.13 kMESF (inactive)", "6.31 kMESF (inactive)", "6.45 kMESF (inactive)", "10.5 kMESF (inactive)", "5.85 kMESF (inactive)", "3.61 kMESF (inactive)"]
